System: CCRF-CEM leukemia
Assay: NCI tumour cell line growth inhibition, 48 h
Property: TGI

1. O=C1NC(=O)c2ccccc2/C1=C/c1ccc2c(c1)OCO2    > 100 µM
2. COc1cc(CNc2nc3c(N)cc(C(F)(F)F)cc3nc2-c2ccccc2)cc(OC)c1OC    > 100 µM
3. CCCCNNC(=O)c1ccc(Br)cc1    > 50 µM
4. COc1cc(-c2nc3ccccc3s2)ccc1OCCCCOc1cc2c(cc1OC)C(=O)N1CCC[C@H]1C=N2    2.1 µM
5. CN1CCN(Cc2c[nH]c3c2C(=O)c2c(c(O)c4ccccc4c2O)C3=O)CC1    18.5 µM
6. OCCCCC#Cc1ccccc1C#Cc1ccc(O)cc1    26.1 µM
7. O=C(/C=C(\O)C(=O)O)/C=C(\O)c1ccccc1    > 100 µM
8. O=P1(N2CCOCC2)OCCO1    > 100 µM
9. O=S(=O)(NC1CCCCC1)c1ccc2c(c1)OCCOCCOCCOCCO2    > 100 µM
10. Cc1cc(-n2nnc(C(=O)O)c2-c2ccccc2)c2ccc(Cl)cc2n1    > 100 µM
11. Nc1ccn(C2CC(F)C(CO)O2)c(=O)n1 (stereo unspecified)    > 100 µM

Source listed as PubChem BioAssay (NCI).
